Biological target: Mouse EP4 (Mus musculus, UniProt P32240)
Sequence (P32240 whole entry): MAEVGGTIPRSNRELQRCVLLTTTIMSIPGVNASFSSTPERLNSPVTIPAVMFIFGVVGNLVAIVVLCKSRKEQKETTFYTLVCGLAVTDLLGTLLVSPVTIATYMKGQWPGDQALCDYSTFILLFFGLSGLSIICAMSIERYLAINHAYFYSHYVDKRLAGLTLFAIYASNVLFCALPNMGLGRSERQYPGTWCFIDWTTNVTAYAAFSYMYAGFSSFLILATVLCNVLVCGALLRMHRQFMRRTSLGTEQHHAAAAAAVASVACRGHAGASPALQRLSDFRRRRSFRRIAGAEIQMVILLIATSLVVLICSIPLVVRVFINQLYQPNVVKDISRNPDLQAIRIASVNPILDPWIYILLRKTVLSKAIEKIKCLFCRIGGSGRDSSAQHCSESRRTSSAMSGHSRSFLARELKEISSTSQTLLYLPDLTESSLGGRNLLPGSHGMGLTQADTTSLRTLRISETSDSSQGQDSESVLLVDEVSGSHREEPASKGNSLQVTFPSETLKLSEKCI
Test: Measurement of EP4 antagonistic activity (inhibition of PGE2-induced cAMP production)
Readout Name: pIC50
Remember, pIC50 is on a log scale: it is -log10 of the molar concentration.

Fill: pIC50 (Mouse EP4 (Mus musculus, UniProt P32240)) for this compound CC(C(=O)Nc1cc(C#N)ccc1CCCC(=O)O)c1ccc(F)c2ccccc12 (stereo not shown) [Compound A] 8.89
